Source of measurements: the supplement of paper PMC11865577

- System: TO-3-N3 (biotin conjugate)
- procedure_text: pull-down binding Z-score (relative to library population); higher = stronger binding
- applied_conditions: RNA library: Library-2
reported_metric: pull-down binding Z-score
One number for each entry.

Recorded pull-down binding Z-score, per entry:
sequence_code	target_or_test_system	pull-down binding Z-score
AGUCACUUAGAUUACAUGUCACU [hsa-mir-892c]	TO-3-N3 (biotin conjugate)	0.00628
AAGGCUGAUGAAACUCAAGCCUU	TO-3-N3 (biotin conjugate)	-0.506
GGACAUCCUUCCAUAGUAAAUAAGCGGUGCC [hsa-mir-8064]	TO-3-N3 (biotin conjugate)	-0.38
UGCUGUGCUGUGCUGAGCAGGGCUGAGCUG [hsa-mir-4539]	TO-3-N3 (biotin conjugate)	0.29
GCUUGGAGCCUUGGUAGGGAAGCAAGCUGAGGAGAUAGGA [hsa-mir-7154]	TO-3-N3 (biotin conjugate)	1.22
AUCAAGACUAUUCAACCAAGGGUUGAAAAGAAAAAGCUUGAU	TO-3-N3 (biotin conjugate)	-0.561
CCAUACAAUAUUUGG [hsa-mir-1302-1]	TO-3-N3 (biotin conjugate)	-0.642
UUUGUCAUUAAAGUAAUGCAAA [hsa-mir-548m]	TO-3-N3 (biotin conjugate)	0.175

Batch of 3 sequences: report pull-down binding Z-score for each.
1. UUGGGGAGGAGCUAAGAAGCCCCUACAGGGCCCAG [hsa-mir-4257]
2. CAUGAGCCCUUUGGAAAGGUCUCGUG [hsa-mir-4711]
3. UUUGCCAUUAAAAGUAACGACAAA [hsa-mir-548a-1]

1. 0.138
2. 0.395
3. -0.873

Batch of 7 sequences: report pull-down binding Z-score for each.
1. AGGUAGUGUUUAGUUAUCUACU [hsa-mir-20a]
2. CCGUGCCCUGGCCACUCAUUCGG [hsa-mir-6741]
3. AGUAUGGAUUAAAUUUAUAUUUUCCUCGAUACU [hsa-mir-8084]
4. UGAGCAGGGUCCACACCAAGUCGUGUUCA [hsa-mir-27a]
5. GCAUGGGGCUAGGAGGCCCCGCGC [hsa-mir-6825]
6. UUUAUGCCUGUUAGCAUGAAAAAAGAGGCUGAGAA [hsa-mir-7515]
7. AGUGGAAAAAGUUCUUUUCUUCCUCU [hsa-mir-3192]

[-0.264, 0.294, 0.413, 0.869, 0.451, -0.5, 0.0782]

Batch of 5 sequences: report pull-down binding Z-score for each.
1. GUGCCAUCAAAUUGGAUGACAAAGAUCCAAAUUUCAAAGAUCAAGUCAUUUUGCUGAAUAAGCAUAUUGACGCAU
2. GCAGGCCGUGAACUCGUCGAGCUGCGCGUGCGGCCGGUGCUCA [hsa-mir-1199]
3. GGAACACUAUAUUAAUCAGGUUUCC [hsa-mir-6509]
4. UGCAACGAUACCGAUACAAGCCUCACUCCCUUUCGGAUGGCUUAUUGUUGGCGUUGCA
5. GAUUCAGAUCUUAAUGACUUUGUC [SHAPE_invivo_SARS-CoV-2_Motif_393]

1. -0.675
2. 0.55
3. -0.609
4. -0.475
5. -0.246

====

- Test system: TO-3-N3 (biotin conjugate)
- procedure_text: pull-down binding Z-score (relative to library population); higher = stronger binding
- applied_conditions: RNA library: Library-2
I'd appreciate it if you could supply pull-down binding Z-score values for the items below.

Recorded pull-down binding Z-score, per entry:
sequence_code	target_or_test_system	reported_metric	result
CCUUCUACCAAGUUAAGCAUACUCAUUAGAAGG [hsa-mir-3914-2]	TO-3-N3 (biotin conjugate)	pull-down binding Z-score	0.653
UUUUCAGUUCCUGAGAUC [hsa-mir-4287]	TO-3-N3 (biotin conjugate)	pull-down binding Z-score	-0.0736
UAAAUUUUUGGCUUUGUGUGCUGACUCUAUCAUUAUUGGUGGAGCUAAACUUAAAGCCUUGAAUUUA	TO-3-N3 (biotin conjugate)	pull-down binding Z-score	-0.848

Now look at this entry.
response.value for "CUCGUCUAUCUUCUGCAGGCUGCUUACGGUUUCGUCCGUGUUGCAGCCGAUCAUCAGCACAUCUAGGUUUUGUCCGGGUGUGACCGAAAGGUAAGAUGGAGAG" (field: pull-down binding Z-score) = -0.827

====

I'd appreciate it if you could supply pull-down binding Z-score values for the items below.
- System: TO-N3-2 (biotin conjugate)
- procedure_text: pull-down binding Z-score (relative to library population); higher = stronger binding
- applied_conditions: RNA library: Library-2
One number for each entry.

Recorded pull-down binding Z-score, per entry:
sequence_code	pull-down binding Z-score
CUGAGUAACUUGUGCUUAUAACUCAG [hsa-mir-5000]	-0.396
UACAAACUUGUG [DMSMaPseq_invitro_SARS-CoV-2_Motif_398]	-1.04

Batch of 3 sequences: report pull-down binding Z-score for each.
1. UGGGUAGAAAGUAUUAUUCUAUUCA [hsa-mir-664b]
2. UGUCUUGUGUCUGUAAGUAU [hsa-mir-1275]
3. GGUGGGUGGGAAGUAAGAUCUGACCUGGACUCCAUCCCACCCACC [hsa-mir-4640]

1: -0.83; 2: -0.00915; 3: 4.38

====

- System: TO-N3-2 (biotin conjugate)
- procedure_text: pull-down binding Z-score (relative to library population); higher = stronger binding
- applied_conditions: RNA library: Library-2
I'd appreciate it if you could supply pull-down binding Z-score values for the items below.
One number for each entry.

Batch of 7 sequences: report pull-down binding Z-score for each.
1. GACGACUACUAGCGUGCCUUUGUAAGCACAAGCUGAUGAGUACGAACUUAUGUACUCAUUCGUU [SHAPE_invivo_SARS-CoV-2_Multi_65_ComplexLevel_1]
2. GGGGACGACCU [IAV_invivo_NA_6_Motif_17+IAV_invivo_NA_6_Motif_17]
3. UCUUCAGGUUGGACAGCUGGUGCUGCAGCUUAUUAUGUGGGUUAUCUUCAACCUAGGA [DMSMaPseq_invitro_SARS-CoV-2_Multi_66_ComplexLevel_1]
4. GCAGCUGGAAUUCAAGCCCUGCUGC [hsa-mir-6882]
5. GCUGCAGGCAAAGCUGGGG [hsa-mir-711]
6. GGCGUUGUCCUGCUGAAAUUGUUGACACUGUGAGUGCUUUGGUUUAUGAUAAUAAGCUUAAAGCACAUAAAGACAAAUCAGCUCAAUGCU
7. CCCAUAUGAACAUACAAUGCUAUGGA [hsa-mir-1-2]

1: 0.764; 2: -0.0675; 3: 0.0317; 4: 0.0816; 5: 1.07; 6: 0.182; 7: -0.206

====

I'd appreciate it if you could supply pull-down binding Z-score values for the items below.
- Tested on: G-clamp-N3 (biotin conjugate)
- procedure_text: pull-down binding Z-score (relative to library population); higher = stronger binding
- applied_conditions: RNA library: Library-1 (pre-miRNA loops + repeats)
Give bare numbers.

Recorded pull-down binding Z-score, per entry:
sequence_code	pull-down binding Z-score
CUAAGCUAUGGACUGCUAUGGACUGCUAG [hsa-mir-4473]	-0.249
CCUUCUCCUCUUUGCAGUGAUAAAGGAGG [hsa-mir-4460]	-0.412
UCCUCUCCUGGUCUGGGAGGAUAGAAGAGAGGA [hsa-mir-5191]	1.96
GGUACUUUAUAAUUUCAAAAAGUCCC [hsa-mir-361]	-0.194

Batch of 3 sequences: report pull-down binding Z-score for each.
1. UUUUGCCAUUACUUUCAAUGGCAAAA [hsa-mir-548aa-2]
2. CUGAGCGGCUCCAUCCCCCGGCCUGCUCAU [hsa-mir-6729]
3. ACGAUAUAGGUAUGUAUGUAUGUAUGUAUAAAAGCAGGGCAGUAUAUAUAUCGU [hsa-mir-4536-2]

1: -0.284; 2: -1.11; 3: 1.53

Batch of 2 sequences: report pull-down binding Z-score for each.
1. AGUGAAAUAAAGGUCCAUCUCCUGCCUAUUUAUUACUUUGCU [hsa-mir-1243]
2. AAGUCGAUUUCCAAAAGUGACUU [hsa-mir-3124]

[-1.12, -0.161]

Batch of 4 sequences: report pull-down binding Z-score for each.
1. UGCAGUGAGCAACCUACACAACUGCA [hsa-mir-5589]
2. GCCCCAGGGCAGGGGC [hsa-mir-4515]
3. CCCACCAUGUACCAGUGGG [hsa-mir-4422]
4. UUCUAAUGCCAAGAA [hsa-mir-1279]

-0.716
1.01
-1.07
-0.241

Batch of 3 sequences: report pull-down binding Z-score for each.
1. CGGCGGCGGCGGCGGCGGCGGCGGCGGCGGCGGCGGCGGCGGCGGCGG [G4_r(CGG)16]
2. UAUAUGCUUUUUAAAUGGGGCACAGA [hsa-mir-5586]
3. AAAUCCCGUUAAUAAGUAAGAGGAUUU [hsa-mir-2113]

-0.145
2
0.525

Batch of 6 sequences: report pull-down binding Z-score for each.
1. AGGCAUGGGUGGCU [hsa-mir-8085]
2. GAUCCAGCCCAGGCUGGUUCCGCUGAC [hsa-mir-4522]
3. UGGCAAAGACAUAGAUUGUUUAGCUACCCCUUUGCCA [hsa-mir-3119-2]
4. CCAUGUGGUUGCGAGGUAUGAGUAAAACAUGG [hsa-mir-218-1]
5. GCUAACUGUGACCUUAGC [hsa-mir-4729]
6. AGUCUGUCUCAUACCCAACCAGAUU [hsa-mir-205]

1: 0.379; 2: -0.211; 3: 0.167; 4: -0.319; 5: -0.373; 6: -1.11
